The origin of these recorded values is the supplement of paper PMC10065799.

# Target Under Test: c-Src SH2;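 note: peptide library displayed on the E. coli surface as eCPX fusions, selected cells deep-sequenced, score is each peptide's frequency after selection divided by its frequency in the input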
# Test Summary: SH2 binding enrichment of the phosphorylated peptide, bacterial display (enrichment ratio); higher = better substrate or ligand; peptides without Tyr show the background
Reported Endpoint: SH2 binding enrichment

Below are worked cases with known answers.
SH2 binding enrichment of EATKGYLDDPT [G6PD_Y322] on c-Src SH2? 0.567

SH2 binding enrichment of RTVPLYESLRK [DDB1_Y718_P721L] on c-Src SH2? 0.78

SH2 binding enrichment of GRRNTYYASIA [ACADM_Y352] on c-Src SH2? 0.999

SH2 binding enrichment of ISKKIYDPIHD [CTNNA3_Y614_T616P] on c-Src SH2? 0.426

SH2 binding enrichment of TNITEYCRDLI [RECQL_Y492_K487T] on c-Src SH2? 0.537

SH2 binding enrichment of ANAFIYDVQLP [L1CAM_Y420_V421D_YF] on c-Src SH2? 0.51

I. PVQAAYQKVVD [HBB_Y131_A136D]
II. PNQRRYVYYYS [PTEN_Y174_S170N]
Field: lower SH2 binding enrichment | Options: I / II Please reply using the label of the selected record. I
(I: 0.719, II: 2.17)

1. HAVYVYDICHV [TWNK_Y508]
2. SEKVVYRRFTE [NCF1_Y41]
3. MSSLYYANALF [HOXB7_Y6_T9A]
Hello, I need these entries ordered by SH2 binding enrichment, highest reading first. Thanks! Show the ranking through the labels, in the order asked for. 3, 1, 2

a. MAQDIYRASYY [ALK_Y1278_R1275Q]
b. YLQEIYNSNNQ [FGG_Y140]
Of a and b , whose reported SH2 binding enrichment is the larger number? Please reply using the label of the selected record. a
(a: 0.755, b: 0.51)

* * *

phosphorylation enrichment listing for selected sequences.
# System: c-Src
# Test Summary: phosphorylation enrichment, bacterial display (enrichment ratio); higher = better substrate or ligand; peptides without Tyr show the background
Answer using only a numeral; do not append any unit.

Below are worked cases with known answers.
Field request: phosphorylation enrichment | item: PFSSPYENSLI [EPOR_Y489_N487S_YF] 0.674

Field request: phosphorylation enrichment | item: VKYLGYPPPEI [KDR_Y357_A352V] 0.403

Field request: phosphorylation enrichment | item: SIKDKYVTALY [KCNH2_Y611] 0.575

***
Field request: phosphorylation enrichment | item: CTTIHYNFMCF [TP53_Y234_N239Y_YF] 0.474

Field request: phosphorylation enrichment | item: DDIPLYLKGGV [COX7A2_Y44_E40D] 0.435

Field request: phosphorylation enrichment | item: SDPIIYTLENI [ADGRE1_Y534] 5.13

Field request: phosphorylation enrichment | item: HAVYVYDICHV [TWNK_Y508] 5.04

* * *

# Target Under Test: MERTK (UniProt Q12866)
# Sequence (Q12866 whole entry, looked up): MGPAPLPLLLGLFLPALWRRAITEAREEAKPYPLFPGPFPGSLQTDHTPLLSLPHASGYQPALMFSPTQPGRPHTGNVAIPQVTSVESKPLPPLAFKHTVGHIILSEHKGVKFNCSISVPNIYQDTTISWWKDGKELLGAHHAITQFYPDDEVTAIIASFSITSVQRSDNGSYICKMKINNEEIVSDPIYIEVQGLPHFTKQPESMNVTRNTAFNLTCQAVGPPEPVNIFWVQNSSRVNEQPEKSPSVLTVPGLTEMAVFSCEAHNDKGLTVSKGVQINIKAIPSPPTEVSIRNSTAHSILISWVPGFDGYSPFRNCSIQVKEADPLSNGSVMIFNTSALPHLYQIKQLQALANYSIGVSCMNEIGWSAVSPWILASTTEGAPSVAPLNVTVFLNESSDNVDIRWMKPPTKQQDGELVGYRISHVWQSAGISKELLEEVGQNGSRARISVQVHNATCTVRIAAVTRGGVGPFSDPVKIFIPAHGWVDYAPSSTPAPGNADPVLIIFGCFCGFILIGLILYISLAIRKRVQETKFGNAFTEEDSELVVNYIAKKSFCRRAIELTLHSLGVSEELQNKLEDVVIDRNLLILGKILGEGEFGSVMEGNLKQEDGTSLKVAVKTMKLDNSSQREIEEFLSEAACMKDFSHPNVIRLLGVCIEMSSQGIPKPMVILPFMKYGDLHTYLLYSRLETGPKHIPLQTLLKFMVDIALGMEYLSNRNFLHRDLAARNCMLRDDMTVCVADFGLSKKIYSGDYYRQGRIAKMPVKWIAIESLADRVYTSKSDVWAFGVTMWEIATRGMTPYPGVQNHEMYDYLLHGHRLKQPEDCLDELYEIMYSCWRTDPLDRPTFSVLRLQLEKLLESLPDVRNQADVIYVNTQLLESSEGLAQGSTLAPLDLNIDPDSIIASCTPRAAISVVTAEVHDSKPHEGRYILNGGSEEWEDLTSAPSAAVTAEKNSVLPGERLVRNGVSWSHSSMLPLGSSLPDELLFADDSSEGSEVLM
# Test Summary: phosphorylation enrichment, bacterial display (enrichment ratio); higher = better substrate or ligand; peptides without Tyr show the background
phosphorylation enrichment listing for selected sequences.
Answer using only a numeral; do not append any unit.

Below are worked cases with known answers.
Field request: phosphorylation enrichment | item: ETVHRYVELLD [AP1S3_Y87_I83T] 0.415

Field request: phosphorylation enrichment | item: EIVHRYVELLD [AP1S3_Y87] 0.506

Field request: phosphorylation enrichment | item: TPRNTYKMTSL [MKI67_Y849] 0.428

Field request: phosphorylation enrichment | item: QLDQRYLLVPE [DDX49_Y223] 0.572

Field request: phosphorylation enrichment | item: AHDGEYGAEAL [HBA1_Y25_A22D] 0.451

***
Field request: phosphorylation enrichment | item: RLLRGYDQLAY [HLA-C_Y137_S140L] 0.581

Field request: phosphorylation enrichment | item: ELCSEYRKSRK [SPINK5_Y440] 0.443

Field request: phosphorylation enrichment | item: VFFGSYSCPFG [NKAP_Y104_R106C_YF] 0.836

Field request: phosphorylation enrichment | item: EPSLDYMVTKI [CPS1_Y768] 0.469

Field request: phosphorylation enrichment | item: IYGASYVPFAA [RBM47_Y541] 6.3

Field request: phosphorylation enrichment | item: EFISEFCGEII [EZH2_Y641_Y641F] 0.638

Field request: phosphorylation enrichment | item: RVGNMYMRGLS [ABCG8_Y209_V210M] 0.697

Field request: phosphorylation enrichment | item: GGDGSYVSVPL [TNNI3K_Y425_S430L] 0.474

Field request: phosphorylation enrichment | item: DGTIVYTGLET [USH2A_Y4487] 0.465
